Test system: NCI-H1355 (Lung Adenocarcinoma)
Experiment: Bliss excess, mean over the matrix (fraction); higher = more synergy
property.label: Bliss excess
A bare number is all that is needed in reply.

Examples with their reported Bliss excess follow.
compound	Bliss excess
C=CCn1c(=O)c2cnc(Nc3ccc(N4CCN(C)CC4)cc3)nc2n1-c1cccc(C(C)(C)O)n1 [AZD1775] + Nc1ccn([C@@H]2O[C@H](CO)[C@@H](O)C2(F)F)c(=O)n1 [Gemcitabine] (first compound max 1 µM, partner max 0.3 µM)	0.0478
COc1nnc2ccc(N3CCC(c4ccc(OCCN5CCN(C)C(=O)[C@H]5C)cc4)CC3)nn12 [AZD5153] + C[C@@H]1COCCN1C2=NC(=NC(=C2)C3(CC3)[S@](=N)(=O)C)C4=C5C=CNC5=NC=C4 [AZD6738] (first compound max 1 µM, 7x7, partner max 10 µM)	-0.006
CN(CCO)CC[C@H](CSc1ccccc1)Nc1ccc(S(=O)(=O)NC(=O)c2ccc(N3CCC([C@@H](O)c4ccccc4-c4ccc(Cl)cc4)CC3)cc2)cc1S(=O)(=O)C(F)(F)F [AZD4320] + CS(=O)(=O)CCNCc1ccc(-c2ccc3ncnc(Nc4ccc(OCc5cccc(F)c5)c(Cl)c4)c3c2)o1 [Lapatinib] (first compound max 1 µM, 7x7, partner max 10 µM)	0.0077
C=CCn1c(=O)c2cnc(Nc3ccc(N4CCN(C)CC4)cc3)nc2n1-c1cccc(C(C)(C)O)n1 [AZD1775] + O=C(c1cc(Cc2n[nH]c(=O)c3ccccc23)ccc1F)N1CCN(C(=O)C2CC2)CC1 [Olaparib] (first compound max 1 µM, partner max 10 µM)	-0.0671
NC1(C(=O)N[C@@H](CCO)c2ccc(Cl)cc2)CCN(c2ncnc3[nH]ccc23)CC1 [Capivasertib] + COc1nnc2ccc(N3CCC(c4ccc(OCCN5CCN(C)C(=O)[C@H]5C)cc4)CC3)nn12 [AZD5153] (first compound max 10 µM, 7x7, partner max 1 µM)	0.0316

Req: Need Bliss excess, item O=C(c1cc(Cc2n[nH]c(=O)c3ccccc23)ccc1F)N1CCN(C(=O)C2CC2)CC1 [Olaparib] + Cc1c2c(nn1C)CSCc1cc(n(C)n1)CSc1cc(c3ccccc3c1)OCCCc1c(C(=O)O)n(C)c3c-2c(Cl)ccc13 [AZD5991] (first compound max 10 µM, 7x7, partner max 1 µM)
Resp: -0.0595

Req: Which measured Bliss excess value corresponds to Cc1c2c(nn1C)CSCc1cc(n(C)n1)CSc1cc(c3ccccc3c1)OCCCc1c(C(=O)O)n(C)c3c-2c(Cl)ccc13 [AZD5991] + C[C@@H](Nc1cc(F)cc(F)c1)c1cc(C(=O)N(C)C)cc2c(=O)cc(N3CCOCC3)oc12 [AZD8186] (first compound max 1 µM, 7x7, partner max 3 µM) ?
Resp: -0.064

* * *

Tested on: NCI-H1355 (Lung Adenocarcinoma)
Assay: Bliss excess, mean over the matrix (fraction); higher = more synergy
Recorded measurements of Bliss excess, one per entry

molecule	property.label	observed.value
C[C@@H](c1ccc2nccn2c1)n1nnc2ncc(-c3cnn(C)c3)nc21 [Savolitinib] + Cc1c2c(nn1C)CSCc1cc(n(C)n1)CSc1cc(c3ccccc3c1)OCCCc1c(C(=O)O)n(C)c3c-2c(Cl)ccc13 [AZD5991] (first compound max 1 µM, 7x7, partner max 1 µM)	Bliss excess	-0.0155

Next molecule, please.
Req: Requested field: Bliss excess. Item: Cc1cc2ncnn2cc1Nc1ncc2c(n1)n(C1CCOCC1)c(=O)n2C [AZD7648] + C=CCn1c(=O)c2cnc(Nc3ccc(N4CCN(C)CC4)cc3)nc2n1-c1cccc(C(C)(C)O)n1 [AZD1775] (first compound max 10 µM, partner max 1 µM)
Resp: -0.0276

* * *

Entries and their combination Emax values follow.
Test system: COLO-668 (Small Cell Lung Carcinoma)
Assay: combination Emax (second highest fraction inhibited in the dose matrix, 72 h); higher = more inhibition; extreme values may be limits of the assay
// return just the number, without any unit appended

Req: Would you kindly share the measured combination Emax for CN(CCO)CC[C@H](CSc1ccccc1)Nc1ccc(S(=O)(=O)NC(=O)c2ccc(N3CCC([C@@H](O)c4ccccc4-c4ccc(Cl)cc4)CC3)cc2)cc1S(=O)(=O)C(F)(F)F [AZD4320] + CS(=O)(=O)CCNCc1ccc(-c2ccc3ncnc(Nc4ccc(OCc5cccc(F)c5)c(Cl)c4)c3c2)o1 [Lapatinib] (first compound max 1 µM, 7x7, partner max 10 µM) ?
Resp: 0.975

Req: Report combination Emax for CC(=O)c1c(C)c2cnc(Nc3ccc(N4CCNCC4)cn3)nc2n(C2CCCC2)c1=O [Palbociclib] + CC1(C)CCC(CN2CCN(c3ccc(C(=O)NS(=O)(=O)c4ccc(NCC5CCOCC5)c([N+](=O)[O-])c4)c(Oc4cnc5[nH]ccc5c4)c3)CC2)=C(c2ccc(Cl)cc2)C1 [Venetoclax] (first compound max 10 µM, 7x7, partner max 1 µM) please.
Resp: 0.114

* * *

System: NCI-H1993 (Lung Adenocarcinoma)
Test: combination Emax (second highest fraction inhibited in the dose matrix, 72 h); higher = more inhibition; extreme values may be limits of the assay
combination Emax reference
In your answer, state the number alone without any accompanying words.

Examples with answers:
compound	combination Emax
CN(CCO)CC[C@H](CSc1ccccc1)Nc1ccc(S(=O)(=O)NC(=O)c2ccc(N3CCC([C@@H](O)c4ccccc4-c4ccc(Cl)cc4)CC3)cc2)cc1S(=O)(=O)C(F)(F)F [AZD4320] + C[C@@H](Nc1cc(F)cc(F)c1)c1cc(C(=O)N(C)C)cc2c(=O)cc(N3CCOCC3)oc12 [AZD8186] (first compound max 1 µM, 7x7, partner max 3 µM)	0.874
CC1(C)CCC(CN2CCN(c3ccc(C(=O)NS(=O)(=O)c4ccc(NCC5CCOCC5)c([N+](=O)[O-])c4)c(Oc4cnc5[nH]ccc5c4)c3)CC2)=C(c2ccc(Cl)cc2)C1 [Venetoclax] + CS(=O)(=O)CCNCc1ccc(-c2ccc3ncnc(Nc4ccc(OCc5cccc(F)c5)c(Cl)c4)c3c2)o1 [Lapatinib] (first compound max 1 µM, 7x7, partner max 10 µM)	0.262

Req: Which combination Emax reading was recorded for the compound Cc1nc(Nc2ncc(C(=O)Nc3c(C)cccc3Cl)s2)cc(N2CCN(CCO)CC2)n1 [Dasatinib] + CC(=O)Nc1cccc(-n2c(=O)n(C3CC3)c(=O)c3c(Nc4ccc(I)cc4F)n(C)c(=O)c(C)c32)c1 [Trametinib] (first compound max 2 µM, 7x7, partner max 1 µM) ?
Resp: 0.69

* * *

Tested on: HCC2998 (Colorectal Carcinoma)
Test: Bliss excess, mean over the matrix (fraction); higher = more synergy
property.label: Bliss excess
Give the figure by itself; no unit, no explanation.

// below: answered compounds
compound	Bliss excess
COc1cccc2c1C(=O)c1c(O)c3c(c(O)c1C2=O)C[C@@](O)(C(=O)CO)C[C@@H]3O[C@H]1C[C@H](N)[C@H](O)[C@H](C)O1 [Doxorubicin] + Cc1cc2ncnn2cc1Nc1ncc2c(n1)n(C1CCOCC1)c(=O)n2C [AZD7648] (first compound max 1 µM, 7x7, partner max 10 µM)	0.0344
CC(=O)c1c(C)c2cnc(Nc3ccc(N4CCNCC4)cn3)nc2n(C2CCCC2)c1=O [Palbociclib] + CC1(C)CCC(CN2CCN(c3ccc(C(=O)NS(=O)(=O)c4ccc(NCC5CCOCC5)c([N+](=O)[O-])c4)c(Oc4cnc5[nH]ccc5c4)c3)CC2)=C(c2ccc(Cl)cc2)C1 [Venetoclax] (first compound max 10 µM, 7x7, partner max 1 µM)	-0.0212
Cc1c2c(nn1C)CSCc1cc(n(C)n1)CSc1cc(c3ccccc3c1)OCCCc1c(C(=O)O)n(C)c3c-2c(Cl)ccc13 [AZD5991] + C1CN(CCC1(C(=O)N[C@@H](CCO)C2=CC=C(C=C2)Cl)N)C3=NC=NC4=C3C=CN4 [Capivasertib] (first compound max 1 µM, 7x7, partner max 3 µM)	-0.0434
COc1cccc(OCCCN)c1-c1cc(Nc2cnc(C#N)cn2)n[nH]1 [Prexasertib] + CCc1c2c(nc3ccc(O)cc13)-c1cc3c(c(=O)n1C2)COC(=O)[C@]3(O)CC [SN-38] (first compound max 1 µM, 7x7, partner max 0.3 µM)	0.0876
Cc1c2c(nn1C)CSCc1cc(n(C)n1)CSc1cc(c3ccccc3c1)OCCCc1c(C(=O)O)n(C)c3c-2c(Cl)ccc13 [AZD5991] + C=CCn1c(=O)c2cnc(Nc3ccc(N4CCN(C)CC4)cc3)nc2n1-c1cccc(C(C)(C)O)n1 [AZD1775] (first compound max 1 µM, partner max 1 µM)	0.0142
C[C@@H](c1ccc2nccn2c1)n1nnc2ncc(-c3cnn(C)c3)nc21 [Savolitinib] + CN(CC[C@H](CSC1=CC=CC=C1)NC2=C(C=C(C=C2)S(=O)(=O)NC(=O)C3=CC=C(C=C3)N4CCC(CC4)[C@H](C5=CC=CC=C5C6=CC=C(C=C6)Cl)O)S(=O)(=O)C(F)(F)F)CCO [AZD4320] (first compound max 1 µM, 7x7, partner max 1 µM)	-0.0901

# ---- query compound ----
Req: Could you tell me which Bliss excess is on file for COc1nnc2ccc(N3CCC(c4ccc(OCCN5CCN(C)C(=O)[C@H]5C)cc4)CC3)nn12 [AZD5153] + CCN(CCO)CCCOc1ccc2c(Nc3cc(CC(=O)Nc4cccc(F)c4)[nH]n3)ncnc2c1 [AZD2811] (first compound max 1 µM, 7x7, partner max 1 µM) ?
Resp: -0.0288
